Values compiled from patent US20050054620A1.

System: NCI-H929 cells
Test Name: Soft agar colony assay (clonal proliferation)
Format: cell-based
Test Conditions: Homo sapiens, 336 h, colonies counted after 14 days, read-out: concentration that caused 50% inhibition (ED50) of clonal growth
Test Readout: EC50 (nM)

1. C[C@H](/C=C/[C@H](C)C(C)(C)O)[C@H]1CC[C@H]2/C(=C/C=C3C[C@@H](O)C[C@H](O)C3)CCC[C@]12C [paricalcitol, 19-nor-1,25, (OH)2D3] | 0.02

----------
Tested on: THP-1
Test Name: Soft agar colony assay (clonal proliferation)
Type: cell-based
Test Conditions: Homo sapiens, 336 h, colonies counted after 14 days, read-out: concentration that caused 50% inhibition (ED50) of clonal growth
Method: A soft agar colony assay was used to test the effect of paricalcitol and 1,25(OH)2D3 on various cancer cell lines. For the soft agar colony assay, trypsinized and washed single-cell suspensions of cells were enumerated and plated into 24 well flat bottom plates using a two-layer soft agar system with a total of 1×10^3 cells/well in a volume of […], as described previously (Kubota et al., supra, 1998). […]
pEC50: −log10 of the molar value.
Test Readout: pEC50

1) C[C@H](/C=C/[C@H](C)C(C)(C)O)[C@H]1CC[C@H]2/C(=C/C=C3C[C@@H](O)C[C@H](O)C3)CCC[C@]12C | 8.24
